Tested on: HIV-1 IIIB
Format: cell-based
Where a SMILES comes first, the peptide text is derived from it. Bridges are numbered along the chain shown (N, C = ends). [ ]: non-standard residue; d: D form. S5 = C=CCCC[C@](C)(N)C(=O)O
experimental_readout: IC50 (µM)
Could you give me the number in µM? Just the number is fine.

Provide value of IC50 for this record tested with HIV-1 IIIB: CC[C@H](C)[C@H](N)C(=O)N[C@H](C(=O)N[C@@H](Cc1ccccc1)C(=O)N[C@@]1(C)CCC/C=C\CCC[C@@](C)(C(=O)N[C@@H](Cc2ccc(O)cc2)C(=O)N[C@@H](Cc2ccc(O)cc2)C(=O)NCC(=O)N[C@@H](CCC(=O)O)C(=O)N[C@@H](CCCCN)C(N)=O)NC(=O)[C@H](CC(C)C)NC(=O)[C@H]([C@@H](C)CC)NC(=O)[C@H](CC(=O)O)NC1=O)[C@@H](C)O [NYAD-23] (H-ITF[S5]DIL[S5]YYGEK-NH2; staple (Z) 4-8; N-terminus and C-terminus assumed)
9.1

These entries and their values trace back to patent US8937154B2.
